# credit: patent US4031244A

system: mouse; test: Anticonvulsive activity by the electroshock method of Tooman et al; assay type: in vivo; details: Mus musculus, read-out: Anticonvulsive ED50
assay_readout: ED50 (mg/kg)
Answers are plain numbers, in mg/kg.

Example entries begin here.
CNCCOc1c(C)cccc1C : 80
Cc1cccc(C)c1OCCN : 115
Cc1cccc(C)c1OCCCN : 216

Moving on to another molecule below.
The reported value for Cc1cccc(C)c1OCC(C)N (stereo not shown) in terms of ED50 is 23

---

assay: in vivo; settings: po, mouse
assay_readout: LD50 (mg/kg)
Answers are plain numbers, in mg/kg.

Parameters: items (list). Returns: LD50 for each item.
1. Cc1cccc(C)c1OCCN [C, 2-(2',6'-xylyloxy)-ethylamine]
2. Cc1cccc(C)c1OCCCN [D, 3-(2',6'-xylyloxy)-propylamine]

740
580

The reported value for CNCCOc1c(C)cccc1C [B, n-methyl-2-(2',6'-xylyloxy)-ethylamine] in terms of LD50 is 216
